test: Human HepG2 cell viability assay in 384 well format; assay type: toxicity, cell-based; design: dose 125 nL, time 70.5 hour; concentration not given beside the values; details: HepG2 cells, read-out: Inhibition
For each entry below, report its cytotoxicity at 70.5 h value.
Numbers only; they are read as %.

Lookup: Supply measured cytotoxicity at 70.5 h of CCSc1ccc(NC(=O)NC2CCc3[nH]ncc3C2)cn1 (centres undefined) in your reply.
Found: -4.32

Lookup: Return cytotoxicity at 70.5 h for the following molecule: "O=C(c1cc(C2CC2)[nH]n1)N1CCN(c2nccs2)CC1"
Found: -11.6

Lookup: Give the measured cytotoxicity at 70.5 h for Cc1ccsc1CN1CCn2c(COc3cccnc3)cnc2C1C (centres undefined)
Found: -9.93

Lookup: Supply measured cytotoxicity at 70.5 h of Cc1cnn(CC2CCCCN2C(=O)c2csc(C)n2)c1 (centres undefined) in your reply.
Found: -3.43

Lookup: Using the record for "O=C(O)CCC(=O)Nc1nn(Cc2ccccc2Cl)cc1Cl" , state its measured cytotoxicity at 70.5 h.
Found: -5.22

Lookup: Return cytotoxicity at 70.5 h for the following molecule: "Cc1ccc(S(=O)(=O)NC[C@H]2OC[C@@H](NCc3ccccn3)[C@@H]2O)cc1"
Found: -6.39

Lookup: Answer with reported cytotoxicity at 70.5 h of "CCc1[nH]c2c(CNc3cncc(C(=O)OC)n3)cc(C)cc2c1C"
Found: 20.4

Lookup: Output cytotoxicity at 70.5 h of "Cc1nc(C)c2c(n1)CCN(Cc1ccsc1)CC2"
Found: -0.781

Lookup: Answer with reported cytotoxicity at 70.5 h of "Cc1ncc(-c2ccncc2)c(C2CCN(C(=O)c3ccno3)CC2)n1"
Found: -7.69

Lookup: Using known records, supply cytotoxicity at 70.5 h for "CN(C)C[C@@H]1CN(C(=O)c2cc(F)ccc2F)C[C@@H]1CO"
Found: -5.47

Lookup: State its cytotoxicity at 70.5 h for this molecule: CC(c1nc(C2CC2)no1)N1CCc2c(ncn2C)C1 (centres undefined)
Found: 0.478

Lookup: // Input: "Cc1ccsc1[C@@H]1CCN(C(=O)CCC(=O)N2CCCCCC2)C[C@H]1O" . Output its cytotoxicity at 70.5 h only.
Found: 0.789

Lookup: Return the recorded cytotoxicity at 70.5 h value; entry: "COc1ccc(NC(=O)N(C)Cc2ccco2)cn1"
Found: -6.69

Lookup: Please give measured cytotoxicity at 70.5 h of the following entry: "CCc1noc(CNc2cc3c(cc2Cl)OCCCO3)n1"
Found: -11

Lookup: Give cytotoxicity at 70.5 h for the following molecule: "O=C(c1ccc(Cl)cc1)N1CCn2c(nn(-c3ccc(Cl)cc3)c2=O)C1"
Found: -1.63

Lookup: Give cytotoxicity at 70.5 h for O=C1CC[C@H]2[C@H](CCN2C(=O)C2CCCO2)N1Cc1cccnc1 (some centres undefined)
Found: -6.99

Lookup: Check the records and state cytotoxicity at 70.5 h for "O=C1CN(Cc2nnc(-c3ccc(Br)cc3)o2)CCN1"
Found: 4.44

Lookup: Please report the measured cytotoxicity at 70.5 h for "O=C(c1cscn1)N1CCc2ncnc(-c3cccnc3)c2CC1"
Found: 18.5

Lookup: Note down cytotoxicity at 70.5 h recorded for "CC(C)n1nc(CNc2ncccn2)c2c1CN(C1CCOCC1)CC2"
Found: -17.3

Lookup: Annotate the molecule "O=C(CCNCC(F)(F)F)N1CCC(Nc2cccnn2)CC1" with its measured cytotoxicity at 70.5 h.
Found: 66.1

Lookup: Specify reported cytotoxicity at 70.5 h for the molecule shown: "CCCNC(=O)c1nc2c(o1)CN(C(C)=O)C2"
Found: -9.4

Lookup: Look up and report measured cytotoxicity at 70.5 h for this entry: "Cc1cccc(NCCOc2cccc(C#N)c2)c1C(N)=O"
Found: 16.4

Lookup: Supply cytotoxicity at 70.5 h value. Item: "NCC(=O)N1CCC(c2cccc(Oc3ccccc3)n2)CC1"
Found: -7.22

Lookup: Complete the entry with cytotoxicity at 70.5 h for CCC(C)NC(=O)CS(=O)(=O)Cc1nc(-c2cccs2)no1 (centres undefined)
Found: -8.46
